Target: peroxidase-anti-peroxidase (PAP) immune complex (preformed immune complex of peroxidase and anti-peroxidase IgG)
Test: reverse ELISA, competition: pre-incubated with PAP, then FcγIIa-coated plate (competitor: FcγIIa); lower = more inhibition
Positions of bridges follow the written chain, without caps; N, C: chain ends. No end group written: not given here.
MEASURED PARAMETER: OD 450 nm (OD)

These recorded examples may help you get a feel for the data.
>  <BINDER>
DCAAHLGELAACT (cyclized by a disulfide bond between the two cysteine residues) [… peptide (SEQ ID NO:40)]

>  <OD 450 nm [OD]>
2.43

$$$$
>  <BINDER>
PCARHLGELVWCT (disulfide 2-12 (inferred)) [… peptide (SEQ ID NO:41)]

>  <OD 450 nm [OD]>
1.15

$$$$
>  <BINDER>
RCARHLGELVWCT (disulfide 2-12 (inferred)) [… peptide (SEQ ID NO:5)]

>  <OD 450 nm [OD]>
3.4

$$$$

[1] DCARHLGELVWCT (disulfide 2-12 (inferred)) [… peptide (SEQ ID NO:4)]
[2] DCAWHLGELAACT (cyclized by a disulfide bond between the two cysteine residues) [… peptide (SEQ ID NO:42)]
stdin: Which numeric OD 450 nm is bigger, that of 1 or that of 2 ? # answer = label of selected item
stdout: 1
(1: 2.54 OD, 2: 1.48 OD)
